target: Ec Hfq (Hfq102) (Escherichia coli, UniProt P0A6X3 1-102); assay: EMSA; Hill n 1.0; Tris-glycine gel; EMSA: 34 mM Tris-HCl pH 7.5, 50 mM NaCl, 50 mM KCl, 50 mM NH4Cl, 11.4 mM EDTA, 12% glycerol, 30 C, 30 min, ~1 nM 32P-RNA, Kd in Hfq6; anisotropy: 10 mM Tris-HCl; details: protein: recombinant; tags: untagged; chain copies: 6; label: 32P; stem-loops
pKd: −log10 of the molar value.
quantity.kind: pKd

[
  {
    "binder": "ChvR (structured_RNA) RNA: GGCGGGGCCUACAUGUCGCGCAAGUCUCCGGAGGGCCAUUCCGAGGCGGGGCCCGCUCCAGCGUCCUCAUUGGAGCGGGCGUCU",
    "result": 7.76
  }
]
